assay: Urinary excretion of phenolic metabolites after intake of the GCPE nutraceutical; conditions: week 8, Table S6 total
Below, each of the molecules is paired with its reported Amount excreted in urine, TOTAL value.

molecule	unitsOfMeasure	Amount excreted in urine, TOTAL
O=C(O)CNC(=O)c1cccc(O)c1 [3′-Hydroxyhippuric acid]	µmol	46
O=C(O)CCc1ccc(O)c(O)c1 [DHCA, 3-(3′,4′-Dihydroxyphenyl)propanoic acid]	µmol	31
COc1cc(/C=C/C(=O)NCC(=O)O)ccc1O	µmol	25
O=C(O)CNC(=O)c1ccc(O)cc1 [4′-Hydroxyhippuric acid]	µmol	14

###

experiment: Plasma pharmacokinetics of phenolic metabolites after intake of the GCPE nutraceutical (LC-MS-QToF); conditions: human, oral, 300 mg hydroxycinnamic acids, AUC0–24h, week 8

molecule	AUC(0-t) (µM·h)
O=C(O)c1cccc(O)c1 [3-Hydroxybenzoic acid]	0.8
COc1ccc(CCC(=O)O)cc1OC [Dihydrodimethoxycinnamic acid, 3-(3′,4′-Dimethoxyphenyl)propanoic acid]	1.3
O=C(O)CCc1ccc(O)c(O)c1 [DHCA, 3-(3′,4′-Dihydroxyphenyl)propanoic acid]	2.1
COc1ccc(CCC(=O)O)cc1O [DHiFA]	0.6
O=C(O)c1ccc(O)cc1 [4-Hydroxybenzoic acid]	0.5
COc1cc(CCC(=O)O)ccc1O [DHFA]	1.8
COc1ccc(/C=C/C(=O)O)cc1O [iFA, 3′-Hydroxy-4′-methoxycinnamic acid]	0.043
COc1cc(C(=O)O)ccc1O [4-Hydroxy-3-methoxybenzoic acid]	14

###

assay: Urinary excretion of phenolic metabolites after intake of the GCPE nutraceutical; conditions: week 0, interval 9–11 h
Listed below: Amount excreted in urine, 9-11 h values for each entry.
testReadout: Amount excreted in urine, 9-11 h (µmol)

compound	testReadout	unitsOfMeasure	numericReadout
O=C(O)CCc1ccc(O)c(O[C@@H]2O[C@H](C(=O)O)[C@@H](O)[C@H](O)[C@H]2O)c1 [DHCA-3′-glucuronide]	Amount excreted in urine, 9-11 h	µmol	0.04
COc1cc(CCC(=O)O)ccc1O[C@@H]1O[C@H](C(=O)O)[C@@H](O)[C@H](O)[C@H]1O [DHFA-4′-glucuronide]	Amount excreted in urine, 9-11 h	µmol	0.8
COc1ccc(CCC(=O)O)cc1O[C@@H]1O[C@H](C(=O)O)[C@@H](O)[C@H](O)[C@H]1O [DHiFA-3′-glucuronide]	Amount excreted in urine, 9-11 h	µmol	0.7
COc1ccc(C=CC(=O)O)cc1O[C@@H]1O[C@H](C(=O)O)[C@@H](O)[C@H](O)[C@H]1O [iFA-3′-glucuronide, 4′-Methoxycinnamic acid-3′-glucuronide]	Amount excreted in urine, 9-11 h	µmol	0.49
O=C(O)/C=C/c1ccc(O)c(OS(=O)(=O)O)c1 [CA-3′-sulfate, 4′Hydroxycinnamic acid-3′-sulfate]	Amount excreted in urine, 9-11 h	µmol	0.21
O=C(/C=C/c1ccc(O)c(O)c1)OC1[C@H](O)CC(O)(C(=O)O)C[C@H]1O (stereo partly drawn)	Amount excreted in urine, 9-11 h	µmol	0.05

###

Items are presented alongside their recorded Amount of fecal metabolite excreted at 24 h.
test: Fecal excretion of phenolic metabolites after intake of the GCPE nutraceutical; conditions: feces; 24 h; week 8
testReadout: Amount of fecal metabolite excreted at 24 h (µmol/g)

compound	unitsOfMeasure	numericReadout
O=C(O)Cc1ccc(O)c(O)c1 [3′,4′-Dihydroxyphenylacetic acid]	µmol/g	0.010
COc1cc(/C=C/C(=O)O[C@@H]2C[C@@](O)(C(=O)O)C[C@@H](O)[C@@H]2O)ccc1O [3-Feruloylquinic acid]	µmol/g	0.003
O=C(O)c1ccc(O)c(O)c1 [3,4-Dihydroxybenzoic acid]	µmol/g	0.04
O=C(O)CCc1ccc(O)cc1 [DHCoA, 3-(4′-Hydroxyphenyl)propanoic acid]	µmol/g	0.014
O=C(O)Cc1cccc(O)c1 [3′-Hydroxyphenylacetic acid]	µmol/g	0.11
O=C(O)c1ccc(O)cc1 [4-Hydroxybenzoic acid]	µmol/g	0.01
O=C(O)CCc1cccc(O)c1 [DHiCoA, 3-(3′-Hydroxyphenyl)propanoic acid]	µmol/g	0.25
COc1cc(CC(=O)O)ccc1O [4′-Hydroxy-3′-methoxyphenylacetic acid]	µmol/g	0.003
COc1cc(/C=C/C(=O)O[C@@H]2C[C@@](O)(C(=O)O)C[C@@H](O)[C@@H]2O)ccc1O [5-Feruloylquinic acid]	µmol/g	0.0003
COc1cc(/C=C/C(=O)OC2[C@H](O)CC(O)(C(=O)O)C[C@H]2O)ccc1O (stereo partly shown)	µmol/g	0.0004
O=C(O)c1cccc(O)c1 [3-Hydroxybenzoic acid]	µmol/g	0.020
COc1cc(CCC(=O)O)ccc1O	µmol/g	0.014
O=C(CCc1ccc(O)c(O)c1)OC1CC(O)(C(=O)O)CC(O)C1O (stereo not shown) [5-Dihydrocaffeoylquinic acid]	µmol/g	0.08
O=C(O)/C=C/c1ccc(O)c(O)c1 [CA, 3′,4′-Dihydroxycinnamic acid]	µmol/g	0.003
O=C(O)CCc1ccc(O)c(O)c1 [DHCA, 3-(3′,4′-Dihydroxyphenyl)propanoic acid]	µmol/g	0.0001
O=C(O)/C=C/c1ccc(O)cc1 [CoA, 4′-Hydroxycinnamic acid]	µmol/g	0.003

###

Catalogue of compounds with associated Amount excreted in urine, 11-24 h
assay: Urinary excretion of phenolic metabolites after intake of the GCPE nutraceutical; conditions: week 0, interval 11–24 h
testReadout: Amount excreted in urine, 11-24 h (µmol)

compound	numericReadout
O=C(CCc1ccc(O)c(O)c1)OC1CC(O)(C(=O)O)CC(O)C1O (centres unmarked) [5-Dihydrocaffeoylquinic acid]	0.01
COc1cc(/C=C/C(=O)NCC(=O)O)ccc1O	3.9
COc1ccc(C=CC(=O)O)cc1OS(=O)(=O)O [iFA-3′-sulfate, 4′-Methoxycinnamic acid-3′-sulfate]	0.4
COc1ccc(CCC(=O)O)cc1OS(=O)(=O)O [DHiFA-3′-sulfate]	1.9
O=C(O)c1ccc(O)c(O)c1 [3,4-Dihydroxybenzoic acid]	0.035

###

assay: Urinary excretion of phenolic metabolites after intake of the GCPE nutraceutical; conditions: week 8, interval 6–9 h
testReadout: log10 Amount excreted in urine, 6-9 h (log10 of the value in µmol)

molecule	numericReadout
O=C(O)Cc1ccc(O)c(O)c1 [3′,4′-Dihydroxyphenylacetic acid]	-1.10
COc1cc(CCC(=O)O)ccc1O[C@@H]1O[C@H](C(=O)O)[C@@H](O)[C@H](O)[C@H]1O [DHFA-4′-glucuronide]	0.00
O=C(CCc1ccc(O)c(O)c1)OC1C(O)CC(O)(C(=O)O)CC1O (centres unmarked) [4-Dihydrocaffeoylquinic acid]	-2.40
O=C(O)/C=C/c1ccc(O)c(O)c1 [CA, 3′,4′-Dihydroxycinnamic acid]	-0.96
COc1ccc(C=CC(=O)O)cc1OS(=O)(=O)O [iFA-3′-sulfate, 4′-Methoxycinnamic acid-3′-sulfate]	-0.49
O=C(O)Cc1cccc(O)c1 [3′-Hydroxyphenylacetic acid]	-0.15
O=C(O)CNC(=O)c1ccc(O)cc1 [4′-Hydroxyhippuric acid]	0.08
COc1ccc(/C=C/C(=O)O)cc1O [iFA, 3′-Hydroxy-4′-methoxycinnamic acid]	-0.41

###

assay: Fecal excretion of phenolic metabolites after intake of the GCPE nutraceutical; conditions: feces; 0 h; week 0; mean ± SEM, n = 9
The reader will find reported Amount of fecal metabolite excreted at 0 h values listed item by item below.
testReadout: Amount of fecal metabolite excreted at 0 h

molecule	result
COc1cc(/C=C/C(=O)O[C@@H]2C[C@@](O)(C(=O)O)C[C@@H](O)[C@@H]2O)ccc1O [5-Feruloylquinic acid]	0.0009 ± 0.0007 µmol/g
COc1cc(CCC(=O)O)ccc1O	0.013 ± 0.004 µmol/g
O=C(CCc1ccc(O)c(O)c1)OC1CC(O)(C(=O)O)CC(O)C1O (stereo not drawn) [5-Dihydrocaffeoylquinic acid]	0.04 ± 0.01 µmol/g

###

test: Urinary excretion of phenolic metabolites after intake of the GCPE nutraceutical; conditions: week 0, Table S5 total

compound	unitsOfMeasure	Amount excreted in urine, TOTAL
O=C(O)CNC(=O)c1cccc(O)c1 [3′-Hydroxyhippuric acid]	µmol	32
COc1cc(/C=C/C(=O)NCC(=O)O)ccc1O [Feruloylglycine]	µmol	19
O=C(O)CNC(=O)c1ccc(O)cc1 [4′-Hydroxyhippuric acid]	µmol	14
O=C(O)CCc1ccc(O)c(O)c1 [DHCA, 3-(3′,4′-Dihydroxyphenyl)propanoic acid]	µmol	16
O=C(O)Cc1cccc(O)c1 [3′-Hydroxyphenylacetic acid]	µmol	12

###

# Amount excreted in urine, 3-6 h values compiled below
test: Urinary excretion of phenolic metabolites after intake of the GCPE nutraceutical; details: week 0, interval 3–6 h
testReadout: Amount excreted in urine, 3-6 h (µmol)

compound	numericReadout
O=C(O)c1ccc(O)cc1 [4-Hydroxybenzoic acid]	0.11
COc1cc(C=CC(=O)O)ccc1OS(=O)(=O)O [FA-4′-sulfate, 3′-Methoxycinnamic acid-4′-sulfate]	3.2
O=C(O)CNC(=O)c1ccc(O)cc1 [4′-Hydroxyhippuric acid]	0.7
COc1ccc(C=CC(=O)O)cc1O[C@@H]1O[C@H](C(=O)O)[C@@H](O)[C@H](O)[C@H]1O [iFA-3′-glucuronide, 4′-Methoxycinnamic acid-3′-glucuronide]	0.8
